protocol-text: Drug uptake in VEGF-stimulated mouse lung at 100 mg/kg, po after 4 hrs
Type: ADME, organism-based
Design: dose 100 mg/kg, route oral
settings: read-out: Drug uptake
assay-metric: concentration at 4 h (µM)
The reply should contain only the number, in µM.

Query: Give the measured concentration at 4 h of CCN1CCC(Nc2ccc3c(c2)C(=C(c2ccc(Cl)cc2)c2ncc[nH]2)C(=O)N3)CC1 (mixture of isomers) .
Response: 3.55

----------
protocol-text: Drug uptake in human MDA-MB-231 cells xenografted mouse tumor at 10 mg/kg
Assay type: ADME, organism-based, Neoplasm
Design: dose 10 mg/kg
settings: in vivo, read-out: Drug uptake
assay-metric: concentration (nM)
Express the result in nM but write the number alone.

Query: Quick check: concentration of CCN1CCC(Nc2ccc3c(c2)C(=C(c2ccc(Cl)cc2)c2ncc[nH]2)C(=O)N3)CC1 (mixture of isomers) ?
Response: 340
